# test summary: In vitro stability to trypsin promoting hydrolysis after 1 hr incubation time
# Format: ADME
# assay context: read-out: Degradation
Where a SMILES comes first, the peptide text is derived from it.
attribute measured: metabolised at 1 h (%)

1) C[C@H](NC(=O)[C@@H]1CCCN1C(=O)[C@H](CCCN=C(N)N)NC(=O)CN)C(=O)N[C@@H](CCCCN)C(=O)O (H-GRPAK-OH)
25

(P) C[C@H](NC(=O)[C@@H]1CCCN1C(=O)[C@H](CCCN=C(N)N)NC(=O)[C@@H](N)CCC(N)=O)C(=O)N[C@@H](CCCCN)C(=O)O (H-QRPAK-OH)
(Q) C[C@H](N)C(=O)N[C@@H](CCCN=C(N)N)C(=O)N1CCC[C@H]1C(=O)N[C@@H](C)C(=O)N[C@@H](CCCCN)C(=O)O (H-ARPAK-OH)
(R) C[C@H](NC(=O)[C@@H]1CCCN1C(=O)[C@H](CCCN=C(N)N)NC(=O)[C@@H](N)CCCCN)C(=O)N[C@@H](CCCCN)C(=O)O (H-KRPAK-OH)
-- ask Thanks in advance: please rank these 3 entries by metabolised at 1 h, highest to lowest. Returns: the labels listed in the requested order.
-- reply Q, R, P
(Q: 79%, R: 30%, P: 20%)

---

# test summary: In vitro stability to pepsin promoting hydrolysis after 2 hr incubation time
# Format: ADME
# assay context: read-out: Degradation
Where a SMILES comes first, the peptide text is derived from it.
attribute measured: metabolised at 2 h (%)

1. C[C@H](NC(=O)[C@@H]1CCCN1C(=O)[C@H](CCCN=C(N)N)NC(=O)[C@@H](N)CCCCN)C(=O)N[C@@H](CCCCN)C(=O)O (H-KRPAK-OH)
80
2. C[C@H](NC(=O)[C@@H]1CCCN1C(=O)[C@H](CCCN=C(N)N)NC(=O)CN)C(=O)N[C@@H](CCCCN)C(=O)O (H-GRPAK-OH)
75

(A) C[C@H](NC(=O)[C@@H]1CCCN1C(=O)[C@H](CCCN=C(N)N)NC(=O)[C@@H](N)CCC(N)=O)C(=O)N[C@@H](CCCCN)C(=O)O (H-QRPAK-OH)
(B) C[C@H](N)C(=O)N[C@@H](CCCN=C(N)N)C(=O)N1CCC[C@H]1C(=O)N[C@@H](C)C(=O)N[C@@H](CCCCN)C(=O)O (H-ARPAK-OH)
-- ask From the items above, decide which of A and B has the lower metabolised at 2 h reading. Your choice should be expressed through its label.
-- reply B
(B: 50%, A: 78%)

---

# test summary: In vitro stability to pepsin promoting hydrolysis after 84 hr incubation time
# Assay type: ADME
# assay context: read-out: Degradation
attribute measured: metabolised at 84 h (%)

Some solved cases for reference:
1. C[C@@H]1NC(=O)[C@H](CCCN=C(N)N)NC(=O)[C@@H]2CCCN2C(=O)[C@H](C)NC(=O)[C@H](CCCCN)NC1=O
40
2. C[C@@H]1NC(=O)[C@H](CCCCN)NC(=O)[C@H](CCC(N)=O)NC(=O)[C@H](CCCN=C(N)N)NC(=O)[C@@H]2CCCN2C1=O
25

(A) C[C@@H]1NC(=O)[C@H](CCCCN)NC(=O)[C@H](CCCCN)NC(=O)[C@H](CCCN=C(N)N)NC(=O)[C@@H]2CCCN2C1=O
(B) C[C@@H]1NC(=O)[C@H](CCCCN)NC(=O)CNC(=O)[C@H](CCCN=C(N)N)NC(=O)[C@@H]2CCCN2C1=O
-- ask Returns the identifier with the smallest measured metabolised at 84 h among A and B . Identify your pick by its label.
-- reply B
(B: 10%, A: 30%)

---

# System: Rattus norvegicus
# test summary: In vivo thrombolytic activity at a dose of 5.0 mg in male rat
# Type: functional
Where a SMILES comes first, the peptide text is derived from it.
Parameter: Activity. Scope: all listed entries.
Value expressed in mg; do not type the unit.

Examples from the recorded data:
1) C[C@H](NC(=O)[C@@H]1CCCN1C(=O)[C@H](CCCN=C(N)N)NC(=O)[C@@H](N)CCC(N)=O)C(=O)N[C@@H](CCCCN)C(=O)O (H-QRPAK-OH)
7.02
2) C[C@H](N)C(=O)N[C@@H](CCCN=C(N)N)C(=O)N1CCC[C@H]1C(=O)N[C@@H](C)C(=O)N[C@@H](CCCCN)C(=O)O (H-ARPAK-OH)
6.07

Now, please, on to the next molecule.
-- ask Which Activity value is on record for C[C@@H]1NC(=O)[C@@H](CCCN=C(N)N)NC(=O)[C@@H]2CCCN2C(=O)[C@H](C)NC(=O)[C@@H](CCCCN)NC1=O ?
-- reply 10.62

These data points were gathered from ChEMBL document CHEMBL1136633.
